- assay name: Apparent (surface) pKa of the LNP formulation (TNS assay)
- Type: physicochemical
- measurement setup: lipid nanoparticle, ±SD within one assay run (Table 37)
reported property: pKa
Reply with the value as a number alone.

Use these answered entries as a reference point.
compound	pKa
CCCCCCCCCOC(=O)CCCCCCCN(CCO)CCCCCCCC(=O)OCCCCCCCCC	7.39
CCCCC/C=C\C/C=C\CCCCCCCCC(CCCCCCCC/C=C\C/C=C\CCCCC)OC(=O)CCCN(C)C [MC3, DLin-MC3-DMA, reference compound]	6.30
CCCCC/C=C\C/C=C\CCCCCCCCN(CCO)CCCCCCCC(=O)OC(CCCCCCCC)CCCCCCCC	6.32
CCCCCCCCC(CCCCCCCC)OC(=O)CCCCCCCN(CCO)CCCCCCCC(=O)OC(CCCCCCCC)CCCCCCCC	6.00
CCCCCCCCCOC(=O)CCCCCCCN(CCCCCCCC(=O)OC(CCCCCCCC)CCCCCCCC)CCCNC(=O)C(C)(C)COC	6.79

Q: Param item = CCCCCCCCCOC(=O)CCCN(CCO)CCCCCCCC(=O)OC(CCCCCCCC)CCCCCCCC ; retrieve measured pKa.
A: 6.64

Q: Same for CCCCCCCCCOC(=O)CCCCCCCN(CCO)CCCCCCCC(=O)OC(CCCCCCCC)CCCCCCCC
A: 6.56

* * *

- assay name: Clinical chemistry and hematology in rat, 2 mpk i.v., 48 h
- Format: in vivo
- measurement setup: intravenous, 48 h post dose
reported property: Concentration Lymphocytes
Reply with the value as a number alone.

Use these answered entries as a reference point.
molecule	observed result
CCCCCCCCCN(CCO)CCCCCCCC(=O)OC(CCCCCCCC)CCCCCCCC	12051
CCCCCCCCCOC(=O)CCCCCCCN(CCO)CCCCCCCOC(=O)C(CCCCCCCC)CCCCCCCC	10408.5
CCCCCC/C=C\COC(=O)CCCCCCCN(CCO)CCCCCCCC(=O)OC(CCCCCCCC)CCCCCCCC	14100
CCCCC/C=C\C/C=C\CCCCCCCCC(CCCCCCCC/C=C\C/C=C\CCCCC)OC(=O)CCCN(C)C [MC3, DLin-MC3-DMA, reference compound]	19976

Q: Param item = CCCCCCCCCCCOC(=O)CCCCCN(CCO)CCCCCCCC(=O)OC(CCCCCCCC)CCCCCCCC ; retrieve measured Concentration Lymphocytes.
A: 15924

* * *

Known Concentration Aspartate aminotransferase of a selection of molecules
- assay name: Clinical chemistry and hematology in rat, 2 mpk i.v., 48 h
- Assay type: in vivo
- measurement setup: intravenous, 48 h post dose
Reply with the value as a number alone.

molecule	observed result
CCCCCCCCCOC(=O)CCCCCCCN(CCO)CCCCCCCOC(=O)C(CCCCCCCC)CCCCCCCC	95

Q: Param item = CCCCCCCCCN(CCO)CCCCCCCC(=O)OC(CCCCCCCC)CCCCCCCC ; retrieve measured Concentration Aspartate aminotransferase.
A: 87.5

Q: Same for CCCCC/C=C\C/C=C\CCCCCCCCC(CCCCCCCC/C=C\C/C=C\CCCCC)OC(=O)CCCN(C)C [MC3, DLin-MC3-DMA, reference compound]
A: 325

Q: Same for CCCCCCCCCCCOC(=O)CCCCCN(CCO)CCCCCCCC(=O)OC(CCCCCCCC)CCCCCCCC
A: 124.5

Q: Same for CCCCCC/C=C\COC(=O)CCCCCCCN(CCO)CCCCCCCC(=O)OC(CCCCCCCC)CCCCCCCC
A: 90
